# TEST TARGET: T1, human IL-23 (human, UniProt Q9NPF7 20-189; P29460 23-328)
# T1 sequence (looked up) 1: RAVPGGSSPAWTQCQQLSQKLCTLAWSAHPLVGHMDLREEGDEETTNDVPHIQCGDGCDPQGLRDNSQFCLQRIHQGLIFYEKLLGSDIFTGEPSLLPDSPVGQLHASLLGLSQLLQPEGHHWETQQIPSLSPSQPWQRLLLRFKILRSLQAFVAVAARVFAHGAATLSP
# T1 sequence (looked up) 2: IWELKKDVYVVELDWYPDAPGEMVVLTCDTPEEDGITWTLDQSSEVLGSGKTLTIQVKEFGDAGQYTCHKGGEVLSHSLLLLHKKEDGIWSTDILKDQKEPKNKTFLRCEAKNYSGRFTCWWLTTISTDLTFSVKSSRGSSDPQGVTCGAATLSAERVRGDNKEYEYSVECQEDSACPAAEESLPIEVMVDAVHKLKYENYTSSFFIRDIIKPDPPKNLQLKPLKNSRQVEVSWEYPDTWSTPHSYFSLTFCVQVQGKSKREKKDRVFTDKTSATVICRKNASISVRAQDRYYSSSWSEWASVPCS
# EXPERIMENTAL DETAILS: cell-based or functional assay

>  <BINDER>
1550A07 (designed binder, captured by anti-His mAb) MGVSDVPRDLEVVAATPTSLLISWGHYPMHVRYYRITYGETGGNSPVQEFTVPVPRYTATISGLKPGVDYTITVYAVTYYAQENYKEIPISINYRTEIDKPSQHHHHHH

>  <MEASURE UNIT>
nM

>  <Kit 225 pSTAT3 IC50 (nM)>
1

$$$$
>  <BINDER>
1490B03 (designed binder, captured by anti-His mAb) MGVSDVPRDLEVVAATPTSLLISWGHYPLHVRYYRITYGETGGNSPVQEFTVPSRKYTATISGLKPGVDYTITVYAVTYYKEANYREIPISINYRTEIDKPSQHHHHHH

>  <MEASURE UNIT>
nM

>  <Kit 225 pSTAT3 IC50 (nM)>
0.3

$$$$
>  <BINDER>
1490H05 (designed binder, captured by anti-His mAb) MGVSDVPRDLEVVAATPTSLLISWGHYPLHVRYYRITYGETGGNSPVQEFTVPMRQHTATISGLKPGVDYTITVYAVTYYAQENYKEIPISINYRTEIDKPSQHHHHHH

>  <MEASURE UNIT>
nM

>  <Kit 225 pSTAT3 IC50 (nM)>
0.4

$$$$
>  <BINDER>
1438B02 (designed binder) MGVSDVPRDLEVVAATPTSLLISWGHYPMHVRYYRITYGETGGNSPVQEFTVPRKTYTATISGLKPGVDYTITVYAVTYYNEADYSQIPISINYRTEIDKPSQHHHHHH

>  <MEASURE UNIT>
nM

>  <Kit 225 pSTAT3 IC50 (nM)>
8.6

$$$$
